Biological target: recombinant human PAI-1 (Homo sapiens)
Sequence (P05121 24-402): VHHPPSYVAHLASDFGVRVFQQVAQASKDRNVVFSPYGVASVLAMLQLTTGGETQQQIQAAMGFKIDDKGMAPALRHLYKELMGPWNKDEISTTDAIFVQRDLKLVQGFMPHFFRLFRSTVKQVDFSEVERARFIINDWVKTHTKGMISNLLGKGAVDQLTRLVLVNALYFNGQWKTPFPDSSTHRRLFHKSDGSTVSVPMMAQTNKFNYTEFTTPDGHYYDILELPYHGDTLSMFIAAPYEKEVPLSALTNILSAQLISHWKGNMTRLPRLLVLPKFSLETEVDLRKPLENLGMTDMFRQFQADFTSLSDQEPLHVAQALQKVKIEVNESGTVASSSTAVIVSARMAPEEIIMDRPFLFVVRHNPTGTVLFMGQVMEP
Test: PAI-1 inhibitory activity, Test Method A (tPA fluorogenic substrate, Tris buffer pH8.0, 37 C)
Assay type: biochemical
Conditions: test compound 25 μM; Test Method A
Everything with Inhibitory Ratio at 25 μM (%) lower than 50% is Not met; everything else, including exactly 50%, is Met.

Check out these entries, answers already filled in.
>>> class_label("CCOC1=NN(c2ccc([N+](=O)[O-])cc2)C(=O)C1=Cc1ccc(C(=O)OC)cc1")
"Not met"
>>> class_label("COC(=O)c1cccc(-c2ccc(C=C3C(=O)N(c4cccc(C(=O)O)c4)N=C3C)o2)c1")
"Not met"
>>> class_label("O=C1SC(=Cc2cccc(O)c2O)C(=O)N1Cc1cccc(Br)c1")
"Met"
>>> class_label("O=C1SC(=Cc2ccc(O)c(O)c2)C(=O)N1Cc1ccc(C(F)(F)F)cc1")
"Met"
>>> class_label("O=C1SC(=Cc2ccc(O)c(O)c2)C(=O)N1Cc1cccc([N+](=O)[O-])c1")
"Met"

Input: # check: Inhibitory Ratio at 25 μM (%) of O=C(O)c1cccc(-c2ccc(C=C3SC(=S)N(c4cccc(F)c4)C3=O)o2)c1 is greater than or equal to 50%
Output: Not met

Input: # check: Inhibitory Ratio at 25 μM (%) of COC(=O)c1cccc(N2N=C(C(C)C)C(=Cc3ccc4c(c3)OCO4)C2=O)c1 is greater than or equal to 50%
Output: Not met

Input: # check: Inhibitory Ratio at 25 μM (%) of O=C1SC(=Cc2cccc(O)c2O)C(=O)N1Cc1cccc(Cl)c1Cl is greater than or equal to 50%
Output: Met

* * *

Task for the reader: assign each of the following compounds its reported Inhibitory Ratio at 25 μM (%).
Biological target: recombinant human PAI-1 (Homo sapiens)
Assay: PAI-1 inhibitory activity, Test Method A (tPA fluorogenic substrate, Tris buffer pH8.0, 37 C)
Assay type: biochemical
Settings: 25 μM test compound; Test Method A
Numbers only, in %.

Some solved cases for reference:
>>> numeric_result("O=C(Nc1cccc(OC(F)(F)F)c1)c1cc(C=C2SC(=O)N(Cc3ccc(Cl)c(Cl)c3)C2=O)cc(O)c1O")
53
>>> numeric_result("O=C(OCc1ccccc1)c1cc(C=C2SC(=O)N(Cc3cc(C(F)(F)F)ccc3C(F)(F)F)C2=O)ccc1O")
84
>>> numeric_result("Cc1cc(C=C2SC(=O)N(Cc3ccc(Cl)c(Cl)c3)C2=O)cc(C(=O)Nc2ccc(O)c(O)c2)c1O")
96
>>> numeric_result("O=C(Nc1cc(O)c(O)c(O)c1)c1cc(C=C2SC(=O)N(Cc3ccc(Cl)c(Cl)c3)C2=O)ccc1O")
71
>>> numeric_result("Cc1ccc(O)cc1NC(=O)c1cc(C=C2SC(=O)N(Cc3ccc(Cl)c(Cl)c3)C2=O)ccc1O")
83
>>> numeric_result("COc1ccc(Oc2ccc([N+](=O)[O-])c(C=C3C(=O)N(c4ccc(Cl)c(Cl)c4)N=C3C(C)C)c2)cc1OC")
62
>>> numeric_result("COc1ccc(NC(=O)c2cc(C=C3SC(=O)N(Cc4cc(C(F)(F)F)cc(C(F)(F)F)c4)C3=O)ccc2O)cc1OC")
73
>>> numeric_result("COC(=O)c1cc(C=C2SC(=O)N(Cc3ccc(Cl)c(Cl)c3)C2=O)cc(OC)c1O")
71

Give Inhibitory Ratio at 25 μM (%) for all compounds that follow.
1. O=C(Nc1cc(F)ccc1F)c1cc(C=C2SC(=O)N(Cc3ccc(Cl)c(Cl)c3)C2=O)ccc1O
2. O=C(OCc1ccccc1)c1cc(C=C2SC(=O)N(Cc3ccc(Cl)c(Cl)c3)C2=O)cc(-c2ccccc2)c1O
3. O=C(Nc1ccc(O)c(O)c1)c1cc(C=C2SC(=O)N(Cc3ccc(-c4ccccc4)cc3)C2=O)ccc1O
4. CCOC1=NN(c2ccc([N+](=O)[O-])cc2)C(=O)C1=Cc1c(Br)ccc(O)c1O
5. O=C(Nc1cc(Cl)ccc1Cl)c1cc(C=C2SC(=O)N(Cc3ccc(Cl)c(Cl)c3)C2=O)ccc1O
6. CCOC1=NN(c2ccc([N+](=O)[O-])cc2)C(=O)C1=Cc1c2ccccc2cc2ccccc12
7. O=C(Nc1cc(C=C2SC(=O)N(Cc3ccc(Cl)c(Cl)c3)C2=O)ccc1O)c1ccc(O)cc1
8. COc1cc(OC)c(OC)cc1C=C1C(=O)N(c2cc(Cl)cc(Cl)c2)N=C1C(C)C

Output:
69
91
93
75
71
62
97
50

* * *

Task for the reader: assign each of the following compounds its reported Inhibitory Ratio at 25 μM (%).
Target: recombinant human PAI-1 (Homo sapiens)
Assay: PAI-1 inhibitory activity, Test Method A (tPA fluorogenic substrate, Tris buffer pH8.0, 37 C)
Assay type: biochemical
Conditions: 25 μM test compound; Test Method A

Give Inhibitory Ratio at 25 μM (%) for all compounds that follow.
1. COc1ccc(NC(=O)c2cc(C=C3SC(=O)N(Cc4cc(C(F)(F)F)ccc4C(F)(F)F)C3=O)ccc2O)cc1OC
2. CCOC(=O)Oc1cc(C=C2SC(=O)N(Cc3ccc(Cl)c(Cl)c3)C2=O)cc(OC(=O)OCC)c1OC(=O)OCC
3. COc1cc(C=C2SC(=O)N(Cc3ccc(Cl)c(Cl)c3)C2=O)cc(C(=O)Nc2ccc(O)c(C)c2)c1O
4. O=C(OCc1ccccc1)c1cc(C=C2SC(=O)N(Cc3ccc(Cl)c(Cl)c3)C2=O)cc(O)c1O
5. CC(C)C1=NN(c2cc(Cl)cc(Cl)c2)C(=O)C1=Cc1c[nH]cn1
6. CCOC(=O)CCC1=NN(c2ccccc2)C(=O)C1=Cc1cc(O)c(O)cc1O
7. O=C(O)c1cc(C=C2SC(=O)N(Cc3ccc(Cl)c(Cl)c3)C2=O)cc(O)c1O

Output:
1: >99%; 2: 56%; 3: >99%; 4: >99%; 5: 26%; 6: 56%; 7: >99%

* * *

Biological target: recombinant human PAI-1 (Homo sapiens)
Test: PAI-1 inhibitory activity, Test Method A (tPA fluorogenic substrate, Tris buffer pH8.0, 37 C)
Format: biochemical
Conditions: 50% inhibitory concentration of PAI-1 activity, according to the aforementioned method
reported_endpoint: IC50 (nM)
Numbers only, in nM.

Some solved cases for reference:
>>> numeric_result("O=C(Cc1cc(C(F)(F)F)cc(C(F)(F)F)c1)Nc1ccc(CN2C(=O)SC(=Cc3cccc(O)c3O)C2=O)cc1")
420
>>> numeric_result("O=C(Nc1cc([N+](=O)[O-])ccc1Cl)c1cc(C=C2SC(=O)N(Cc3ccc(Cl)c(Cl)c3)C2=O)ccc1O")
390
>>> numeric_result("O=C1SC(=Cc2cc(O)c(O)c([N+](=O)[O-])c2)C(=O)N1Cc1ccc(Cl)c(Cl)c1")
450

Give IC50 for all compounds that follow.
1. O=C1SC(=Cc2cccc(O)c2O)C(=O)N1Cc1ccc(C=Cc2ccccc2)cc1
2. O=C(Nc1cccc(OC(F)(F)F)c1)c1cc(C=C2SC(=O)N(Cc3ccc(Cl)c(Cl)c3)C2=O)cc(O)c1O
3. O=C1C(=Cc2cc(O)c(O)c(O)c2)SC(=S)N1Cc1ccc(Cl)c(Cl)c1
4. O=C(Cc1cccc(Oc2ccccc2)c1)Nc1cccc(CN2C(=O)SC(=Cc3cccc(O)c3O)C2=O)c1

Output:
1. 140
2. 520
3. 390
4. 340

* * *

Target: recombinant human PAI-1 (Homo sapiens)
Experiment: PAI-1 inhibitory activity, Test Method A (tPA fluorogenic substrate, Tris buffer pH8.0, 37 C)
Type: biochemical
Settings: 25 μM test compound; Test Method A
reported_endpoint: Inhibitory Ratio at 25 μM (%)
One number for each entry, in %.

Some solved cases for reference:
>>> numeric_result("COc1ccc(NC(=O)c2cc(C=C3SC(=O)N(Cc4ccc(Cl)c(Cl)c4)C3=O)ccc2O)cc1OC [compound 351]")
54
>>> numeric_result("COc1cc(C=C2SC(=O)N(Cc3ccc(Cl)c(Cl)c3)C2=O)cc(C(=O)Nc2ccccc2)c1O")
82

Here's the next entry for you.
Measured Inhibitory Ratio at 25 μM (%) (recombinant human PAI-1 (Homo sapiens)), entry O=C(Nc1ccc(O)c(O)c1)c1cc(C=C2SC(=O)N(CCc3ccc(Cl)cc3)C2=O)ccc1O : 81

* * *

Molecular target: recombinant human PAI-1 (Homo sapiens)
Assay: PAI-1 inhibitory activity, Test Method A (tPA fluorogenic substrate, Tris buffer pH8.0, 37 C)
Assay type: biochemical
Settings: test compound 25 μM; Test Method A
Task for the reader: assign each of the following compounds its reported Inhibitory Ratio at 25 μM (%).

>>> result("CC1=NN(c2ccc(S(N)(=O)=O)cc2)C(=O)C1=Cc1ccc(-c2cccc(Cl)c2)o1 [compound 186]")
"30%"
>>> result("O=C1SC(=Cc2ccc(O)c(O)c2)C(=O)N1Cc1cc(Cl)cc(Cl)c1 [compound 12]")
">99%"
>>> result("O=C1SC(=Cc2cccc(O)c2O)C(=O)N1Cc1cc(Br)cc(Br)c1 [compound 47]")
">99%"
>>> result("O=C1SC(=Cc2cccc(O)c2O)C(=O)N1Cc1ccc(Br)cc1 [compound 36]")
">99%"
>>> result("CCOC(=O)C1=NN(c2cccc(C(=O)OCC)c2)C(=O)C1=Cc1ccc2c(c1)OCO2 [compound 196]")
"54%"
>>> result("O=C1SC(=Cc2ccc(O)c(O)c2)C(=O)N1Cc1cc(Br)cc(Br)c1 [compound 46]")
">99%"
>>> result("O=C1SC(=Cc2cccc(O)c2O)C(=O)N1Cc1ccc(Cl)cc1Cl [compound 22]")
">99%"

Here's the next entry for you.
In plain terms, CC(C)C1=NN(c2cc(Cl)cc(Cl)c2)C(=O)C1=Cc1ccc(Br)cc1 [compound 207] has a documented Inhibitory Ratio at 25 μM (%) of 46%
